Data provenance: paper PMC5994430

# assay_summary: Lipophilicity, shake-flask n-octanol/PBS pH 7.4
# Assay type: physicochemical
# measurement_context: n-octanol/50 mM PBS pH 7.4, shake-flask, room temperature, at least six measurements
# key: entry, value: logP
recorded_endpoint: logP

INSERT INTO results (smiles_representation, measured_value) VALUES
  ('Oc1ccc(C[P+](c2ccccc2)(c2ccccc2)c2ccccc2)cc1C(F)(F)F.[Br-]', 1.02),
  ('Oc1ccc(C[P+](c2ccccc2)(c2ccccc2)c2ccccc2)cc1.[Br-]', 0.5),
  ('CC(=O)Oc1ccc(C[P+](c2ccccc2)(c2ccccc2)c2ccccc2)cc1.[Br-]', 0.64),
  ('O=C(Oc1ccc(C[P+](c2ccccc2)(c2ccccc2)c2ccccc2)cc1C(F)(F)F)c1ccccc1.[Br-]', 3.15);
